Tested on: MCF10A
procedure details: percent viability (nuclei count relative to siNT); higher = more viable cells
assay setup: 20 nM; 72 h
parameter: percent viability (%)
Your answer is read as %, so omit the unit and give the number.

Examples with their reported percent viability follow.
In [3]: df
Out[3]:
                                   sequence  obs_value
0    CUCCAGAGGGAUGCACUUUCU [hsa-miR-525-5p]       36.5
1  ACUCAAAAGAUGGCGGCACUUU [hsa-miR-371b-5p]       96.1
2  CCAGCCACGGACUGAGAGUGCAU [hsa-miR-4691-3p]       51.4

Record UGGGGAGCGGCCCCCGGGUGGG [hsa-miR-1343-5p] / MCF10A, percent viability recorded as 86

Record GGUUGGGCAGUGAGGAGGGUGUGA [hsa-miR-3147] / MCF10A, percent viability recorded as 26

Record UGAGAAGGCACAGCUUGCACGUGA [hsa-miR-6770-5p] / MCF10A, percent viability recorded as 36.9

Record AGUUUUGCAGGUUUGCAUUUCA [hsa-miR-19b-2-5p] / MCF10A, percent viability recorded as 96.7

Record AAAAACUGAGACUACUUUUGCA [hsa-miR-548e] / MCF10A, percent viability recorded as 140

Record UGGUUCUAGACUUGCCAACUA [hsa-miR-182-3p] / MCF10A, percent viability recorded as 17.5

Record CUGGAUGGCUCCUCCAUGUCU [hsa-miR-432-3p] / MCF10A, percent viability recorded as 16.2

Record CUCCUGGGGCCCGCACUCUCGC [hsa-miR-1343] / MCF10A, percent viability recorded as 66.7

---

Tested on: MCF10A
procedure details: 5+ nucleoli phenotype percent effect (relative to siNT 0% and siKIF11 100%); higher = more cells with five or more nucleoli
assay setup: 20 nM; 72 h
Please map values of 5+ nucleoli phenotype percent effect to classes as shown: bin 0 (below -20%), bin 1 (-20% to below 20%), bin 2 (20% or more)

>>> df
                                  sequence  label_class
0    CUGGGGAGUGGCUGGGGAG [hsa-miR-6763-5p]        bin 1
1  CUUCUCUUCUCUCCUUCCCAG [hsa-miR-6809-3p]        bin 0

Quick check: band for UUGCUCUGAGCUCCGAGAAAGC [hsa-miR-5691]
bin 1

Quick check: band for UUCGCGGGCGAAGGCAAAGUC [hsa-miR-3124-5p]
bin 1

Quick check: band for AGCUACAUCUGGCUACUGGGU [hsa-miR-222-3p]
bin 1

Quick check: band for AGGGGGAAAGUUCUAUAGUCC [hsa-miR-625-5p]
bin 1

Quick check: band for AUCCGCGCUCUGACUCUCUGCC [hsa-miR-937-3p]
bin 1

Quick check: band for UUAGAACGUUUUAGGGUCAAAU [hsa-miR-5687]
bin 1

Quick check: band for CCUCUCCUCCCUGUGCCCCAG [hsa-miR-6845-3p]
bin 2

Quick check: band for CCAGUGUGGCUCAGCGAG [hsa-miR-4302]
bin 0

Quick check: band for UCAGAUGAUCUAAAGGCCUAUA [hsa-miR-1245b-3p]
bin 1

Quick check: band for UGGAAGACUAGUGAUUUUGUUGU [hsa-miR-7-5p]
bin 0

Quick check: band for GACUGACACCUCUUUGGGUGAA [hsa-miR-888-3p]
bin 1

Quick check: band for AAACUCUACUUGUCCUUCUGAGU [hsa-miR-618]
bin 1

Quick check: band for AACUCUGACCCCUUAGGUUGAU [hsa-miR-4714-5p]
bin 1

Quick check: band for UGGCCCUUUGUACCCCUCCAG [hsa-miR-6851-3p]
bin 2

---

Some sequences, each annotated with its measured one-nucleolus phenotype percent effect.
Tested on: MCF10A
procedure details: one-nucleolus phenotype percent effect (relative to siNT 0% and siNOL11 100%); higher = more cells with one nucleolus (ribosome biogenesis inhibition)
assay setup: 20 nM; 72 h
Your answer is read as %, so omit the unit and give the number.

Examples with their reported one-nucleolus phenotype percent effect follow.
>>> df
                                   sequence                               parameter  obs_value
0  AUGCUACUCGGAAAUCCCACUGA [hsa-miR-5089-3p]  one-nucleolus phenotype percent effect       12.4
1  CACCGGGGAUGGCAGAGGGUCG [hsa-miR-4655-5p]  one-nucleolus phenotype percent effect       24.6
2          CCCCGCCACCGCCUUGG [hsa-miR-4258]  one-nucleolus phenotype percent effect      -17.4
3  CUGCAGACUCGACCUCCCAGGC [hsa-miR-1273h-3p]  one-nucleolus phenotype percent effect       13.6
4  AGAUUGUUUCUUUUGCCGUGCA [hsa-miR-4445-5p]  one-nucleolus phenotype percent effect       34.7

Now for a further sequence.
Reported one-nucleolus phenotype percent effect of CUCAAACCGGCUGUGCCUGUGG [hsa-miR-6715b-3p] : 10

---

Some sequences, each annotated with its measured percent viability.
Tested on: MCF10A
procedure details: percent viability (nuclei count relative to siNT); higher = more viable cells
assay setup: 20 nM; 72 h
Your answer is read as %, so omit the unit and give the number.

Examples with their reported percent viability follow.
>>> df
                                   sequence  measured_on  readout_units  obs_value
0   UCACGCGGAGAGAUGGCUUUG [hsa-miR-3186-3p]       MCF10A              %       20.7
1   CGGCGGGGACGGCGAUUGGUC [hsa-miR-1908-5p]       MCF10A              %       40.6
2    CUGAUAAGAACAGAGGCCCAGAU [hsa-miR-3161]       MCF10A              %       34.7
3   CGUCCCACCCCCCACUCCUGU [hsa-miR-4433-5p]       MCF10A              %       40.9
4  CAGGAGUGGGGGGUGGGACGU [hsa-miR-4433b-3p]       MCF10A              %       65.1

Record AUCUGUCUCGAUUGUUUCCAG [hsa-miR-6888-3p] / MCF10A, percent viability recorded as 110

---

Tested on: MCF10A
procedure details: 5+ nucleoli phenotype percent effect (relative to siNT 0% and siKIF11 100%); higher = more cells with five or more nucleoli
assay setup: 20 nM; 72 h
parameter: 5+ nucleoli phenotype percent effect (%)
Your answer is read as %, so omit the unit and give the number.

Examples with their reported 5+ nucleoli phenotype percent effect follow.
>>> print(df.to_string())
                                   sequence  obs_value
0  UUUUGUGUCUCCCAUUCCCCAG [hsa-miR-5010-3p]      -18.5
1   ACUGGCAUUAGUGGGACUUUU [hsa-miR-5588-5p]       33.4
2  UGCACAUGGCAACCUAGCUCCCA [hsa-miR-5589-3p]      -1.16
3  CCCUGCUGCCUUCACCUGCCAG [hsa-miR-6893-3p]      -2.09

Record AUGUCCCACCCCCACUCCUGU [hsa-miR-4433b-5p] / MCF10A, 5+ nucleoli phenotype percent effect recorded as -37.3

Record UUUCUUCUUAGACAUGGCAGCU [hsa-miR-4659b-3p] / MCF10A, 5+ nucleoli phenotype percent effect recorded as -29.4

Record CGCCCCUCCUGCCCCCACAG [hsa-miR-4749-3p] / MCF10A, 5+ nucleoli phenotype percent effect recorded as 64.3

Record UAUACAAGGGCAGACUCUCUCU [hsa-miR-300] / MCF10A, 5+ nucleoli phenotype percent effect recorded as -6.47

Record ACUCAAACUGUGGGGGCACU [hsa-miR-371a-5p] / MCF10A, 5+ nucleoli phenotype percent effect recorded as 15.8

Record AGAUGUCCAGCCACAAUUCUCG [hsa-miR-2964a-5p] / MCF10A, 5+ nucleoli phenotype percent effect recorded as -43.9

Record AAAAGUAAUUGUGGUUUUUGC [hsa-miR-548ay-5p] / MCF10A, 5+ nucleoli phenotype percent effect recorded as 28.7

---

System: MCF10A
procedure details: 5+ nucleoli phenotype percent effect (relative to siNT 0% and siKIF11 100%); higher = more cells with five or more nucleoli
assay setup: 20 nM; 72 h
parameter: 5+ nucleoli phenotype percent effect (%)
Your answer is read as %, so omit the unit and give the number.

Examples with their reported 5+ nucleoli phenotype percent effect follow.
                                   sequence  measured_on  obs_value
0     AAAAGUAAUCACUGUUUUUGCC [hsa-miR-548y]       MCF10A       42.1
1  AAAAUGGUGCCCUAGUGACUACA [hsa-miR-224-3p]       MCF10A        -15
2       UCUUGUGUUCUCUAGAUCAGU [hsa-miR-581]       MCF10A       2.53
3   CUACAGGCUGGAAUGGGCUCA [hsa-miR-7151-3p]       MCF10A       2.37
4       ACUGGGCUUGGAGUCAGAAG [hsa-miR-378g]       MCF10A      -34.6
5     AGAAGGGGUGAAAUUUAAACGU [hsa-miR-3179]       MCF10A      -30.9

Reported 5+ nucleoli phenotype percent effect of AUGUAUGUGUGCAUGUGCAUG [hsa-miR-297] : 34.4

Reported 5+ nucleoli phenotype percent effect of CAUGCUAGGAUAGAAAGAAUGG [hsa-miR-3146] : -22.8

Reported 5+ nucleoli phenotype percent effect of UCUUUUCUUUGAGACUCACU [hsa-miR-627-3p] : 21.8

Reported 5+ nucleoli phenotype percent effect of CUUCCAGACGCUCCGCCCCACGUCG [hsa-miR-3180-5p] : 28.4

Reported 5+ nucleoli phenotype percent effect of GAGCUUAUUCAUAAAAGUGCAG [hsa-miR-590-5p] : -1.22

Reported 5+ nucleoli phenotype percent effect of UAGGGUACUCAGAGCAAGUUGU [hsa-miR-6841-5p] : 14.6
